Item-by-item account of IC50
Biological target: CypA E81S/K82R (Homo sapiens, UniProt P62937, E81S/K82R)
Construct: Lane 12- SNA-CypA E81S/K82R (1-165);; His6 tag with TEV site (2BT vector); SNA remnant stays on the N-terminus (N, cleaved yes); made in house; host or cells: E. coli BL21(DE3)
Sequence (P62937 whole entry E81S/K82R): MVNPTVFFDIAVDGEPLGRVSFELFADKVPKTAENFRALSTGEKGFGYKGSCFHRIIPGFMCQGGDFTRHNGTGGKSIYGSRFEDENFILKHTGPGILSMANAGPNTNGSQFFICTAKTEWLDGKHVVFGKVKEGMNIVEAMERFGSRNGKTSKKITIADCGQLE
Assay: Chymotrypsin coupled prolyl-isomerase assay
Format: biochemical
Details: mutant CypA E81S/K82R; read-out: Mutant Cyclophilin Prolyl Isomerase Inhibition IC50 Values, CypA E81S/K82R

# molecule, IC50 [nM]
records = [
    ("NCCOCCNC(=O)[C@@H]1CCNC(=O)/C=C/C(=O)N2CCC[C@](Cc3ccccc3)(C2)C(=O)N[C@@H](Cc2ccc(-c3ccc(C#CC(=O)O)cc3)cc2)C(=O)NCc2ccccc2CC(=O)N1 [Compound B25]", 6.2),
    ("NCCOCCNC(=O)[C@@H]1CCNC(=O)/C=C/C(=O)N2CCC[C@](Cc3ccccc3)(C2)C(=O)N[C@@H](Cc2ccc(-c3ccc(CCC(=O)O)cc3)cc2)C(=O)NCc2ccccc2CC(=O)N1 [Compound B23]", 23),
]

###

Item-by-item account of pIC50
Target: PPIL1 (Homo sapiens)
Construct: PPIL1 (UniProtKB Entry Q9Y3C6: residues 1–166); made in house; host or cells: E. coli BL21(DE3)
Experiment: Chymotrypsin coupled prolyl-isomerase assay
Assay type: biochemical
Conditions: wild-type PPIL1; read-out: Wild-Type Cyclophilin Prolyl Isomerase Inhibition IC50 Values, PPIL1
pIC50: −log10 of the molar value.

# molecule, bound-operator, pIC50
measured = [
    ("NCCCc1ccc(-c2ccc(C[C@@H]3NC(=O)[C@]4(Cc5ccccc5)CCCN(C4)C(=O)/C=C/C(=O)NCC[C@@H](C(=O)NCCOCCN)NC(=O)Cc4ccccc4CNC3=O)cc2)cc1", "=", 5.70),
    ("NCCOCCNC(=O)C1CCNC(=O)C=CC(=O)N2CCCC(C2)C(=O)NC(Cc2ccco2)C(=O)NCc2ccccc2CC(=O)N1 (stereo not shown)", "=", 4.40),
    ("NCCOCCNC(=O)[C@@H]1CCNC(=O)/C=C/C(=O)N2CCC[C@](Cc3ccccc3)(C2)C(=O)N[C@@H](Cc2ccc(-c3ccc(/C=C/C(=O)O)cc3)cc2)C(=O)NCc2ccccc2CC(=O)N1", "=", 7.70),
    ("C[N+]1=C(C=CC=CC=C2N(CCCCCC(=O)NCCNC(=O)C3CCNC(=O)C=CC(=O)N4CCCC(Cc5ccccc5)(C4)C(=O)NC(Cc4ccc(-c5ccc(CC(C(=O)O)C(=O)O)cc5)cc4)C(=O)NCc4ccccc4CC(=O)N3)c3ccccc3C2(C)C)C(C)(C)c2ccccc21 (stereo not shown) [*B52-Cy5]", "<", 5.00),
]

###

Biological target: CypA (Homo sapiens)
Construct: PPIA (UniProtKB Entry P62937: residues 1–165); made in house; host or cells: E. coli BL21(DE3)
Test: Chymotrypsin coupled prolyl-isomerase assay
Assay type: biochemical
Conditions: wild-type CypA; read-out: Wild-Type Cyclophilin Prolyl Isomerase Inhibition IC50 Values, CypA
pIC50: −log10 of the molar value.
# binarize pIC50: threshold 6 inclusive, high side Condition met, low side Condition not met

# molecule, label
data = [
    ("NCCOCCNC(=O)[C@@H]1CCNC(=O)/C=C/C(=O)N2CCC[C@](Cc3ccccc3)(C2)C(=O)N[C@@H](Cc2ccc(-c3ccccc3)cc2)C(=O)NCc2ccccc2CC(=O)N1", "Condition met"),
    ("NC(=O)C1CCNC(=O)C=CC(=O)N2CCCC(Cc3ccccc3)(C2)C(=O)NC(Cc2ccc(-c3ccc(C=O)c(B(O)O)c3)cc2)C(=O)NCc2ccccc2CC(=O)N1 (centres unmarked)", "Condition not met"),
    ("C[N+]1=C(C=CC=CC=C2N(CCCCCC(=O)NCCNC(=O)C3CCNC(=O)C=CC(=O)N4CCCC(Cc5ccccc5)(C4)C(=O)NC(Cc4ccc(-c5ccc(C(CC(=O)O)CC(=O)O)cc5)cc4)C(=O)NCc4ccccc4CC(=O)N3)c3ccccc3C2(C)C)C(C)(C)c2ccccc21 (centres unmarked) [*B53-Cy5]", "Condition not met"),
    ("C[N+]1=C(C=CC=CC=C2N(CCCCCC(=O)NCCNC(=O)C3CCNC(=O)C=CC(=O)N4CCCC(Cc5ccccc5)(C4)C(=O)NC(Cc4ccc(-c5ccc(CC(C(=O)O)C(=O)O)cc5)cc4)C(=O)NCc4ccccc4CC(=O)N3)c3ccccc3C2(C)C)C(C)(C)c2ccccc21 (centres unmarked) [Compound B52-Cy5]", "Condition met"),
    ("NCCOCCNC(=O)[C@@H]1CCNC(=O)/C=C/C(=O)N2CCC[C@](Cc3ccccc3)(C2)C(=O)N[C@@H](Cc2ccc(-c3ccc(/C=C/C(=O)O)cc3)cc2)C(=O)NCc2ccccc2CC(=O)N1", "Condition met"),
    ("CC12CCCN(C1)C(=O)C=CC(=O)NCCC(C(=O)NCCOCCN)NC(=O)Cc1ccccc1CNC(=O)C(Cc1ccco1)NC2=O (centres unmarked)", "Condition not met"),
    ("NCCOCCNC(=O)[C@@H]1CCNC(=O)/C=C/C(=O)N2CCC[C@](Cc3ccccc3)(C2)C(=O)N[C@@H](Cc2ccc(-c3ccc(C#CC(=O)O)cc3)cc2)C(=O)NCc2ccccc2CC(=O)N1", "Condition met"),
    ("C[N+]1=C(C=CC=CC=C2N(CCCCCC(=O)NCCNC(=O)C3CCNC(=O)C=CC(=O)N4CCCC(Cc5ccccc5)(C4)C(=O)NC(Cc4ccc(-c5ccc(CC(C(=O)O)C(=O)O)cc5)cc4)C(=O)NCc4ccccc4CC(=O)N3)c3ccccc3C2(C)C)C(C)(C)c2ccccc21 (centres unmarked) [*B52-Cy5]", "Condition not met"),
    ("NCCOCCNC(=O)[C@@H]1CCNC(=O)/C=C/C(=O)N2CCC[C@](Cc3ccccc3)(C2)C(=O)N[C@@H](Cc2ccc(-c3ccc(CCC(=O)O)cc3)cc2)C(=O)NCc2ccccc2CC(=O)N1", "Condition met"),
    ("NCCOCCNC(=O)C1CCNC(=O)C=CC(=O)N2CCCC(C2)C(=O)NC(Cc2ccc(C(=O)c3ccccc3)cc2)C(=O)NCc2ccccc2CC(=O)N1 (centres unmarked)", "Condition not met"),
    ("CC(=O)c1ccc(-c2ccc(C[C@@H]3NC(=O)[C@]4(Cc5ccccc5)CCCN(C4)C(=O)/C=C/C(=O)NCC[C@@H](C(=O)NCCOCCN)NC(=O)Cc4ccccc4CNC3=O)cc2)cc1", "Condition met"),
    ("NCCCc1ccc(-c2ccc(C[C@@H]3NC(=O)[C@]4(Cc5ccccc5)CCCN(C4)C(=O)/C=C/C(=O)NCC[C@@H](C(=O)NCCOCCN)NC(=O)Cc4ccccc4CNC3=O)cc2)cc1", "Condition not met"),
    ("C[N+]1=C(C=CC=CC=C2N(CCCCCC(=O)NCCNC(=O)C3CCNC(=O)C=CC(=O)N4CCCC(Cc5ccccc5)(C4)C(=O)NC(Cc4ccc(-c5ccc(C(CC(=O)O)CC(=O)O)cc5)cc4)C(=O)NCc4ccccc4CC(=O)N3)c3ccccc3C2(C)C)C(C)(C)c2ccccc21 (centres unmarked) [Compound B53-Cy5]", "Condition met"),
]

###

Molecular target: CypC (Homo sapiens, UniProt P45877)
Construct: PPIC (UniProtKB Entry P45877: residues 24–212); host or cells: E. coli BL21(DE3)
Sequence (P45877 24-212): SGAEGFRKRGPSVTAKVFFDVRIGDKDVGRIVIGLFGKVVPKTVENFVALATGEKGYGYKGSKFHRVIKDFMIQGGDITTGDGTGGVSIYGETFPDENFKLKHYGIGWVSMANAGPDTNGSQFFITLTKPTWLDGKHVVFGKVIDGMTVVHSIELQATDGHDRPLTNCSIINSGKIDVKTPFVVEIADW
Experiment: Chymotrypsin coupled prolyl-isomerase assay
Format: biochemical
Conditions: prolyl-isomerase inhibition, 5 nM cyclophilin; read-out: IC50 CypC
pIC50: −log10 of the molar value.

# compound, pIC50
measured = [
    ("C[N+]1=C(C=CC=CC=C2N(CCCCCC(=O)NCCNC(=O)C3CCNC(=O)C=CC(=O)N4CCCC(Cc5ccccc5)(C4)C(=O)NC(Cc4ccc(-c5ccc(CC(C(=O)O)C(=O)O)cc5)cc4)C(=O)NCc4ccccc4CC(=O)N3)c3ccccc3C2(C)C)C(C)(C)c2ccccc21 (centres unmarked)", "~5.30"),
    ("NC(=O)[C@@H]1CCNC(=O)/C=C/C(=O)N2CCC[C@](Cc3ccccc3)(C2)C(=O)N[C@@H](Cc2ccc(-c3cccc(B(O)O)c3)cc2)C(=O)NCc2ccccc2CC(=O)N1", "~5.30"),
    ("NCCOCCNC(=O)[C@@H]1CCNC(=O)/C=C/C(=O)N2CCC[C@](Cc3ccccc3)(C2)C(=O)N[C@@H](Cc2ccc(-c3ccc(CC(C(=O)O)C(=O)O)cc3)cc2)C(=O)NCc2ccccc2CC(=O)N1", "< 4.00"),
    ("NCCOCCNC(=O)[C@@H]1CCNC(=O)/C=C/C(=O)N2CCC[C@](Cc3ccccc3)(C2)C(=O)N[C@@H](Cc2ccc(-c3ccc(C(CC(=O)O)CC(=O)O)cc3)cc2)C(=O)NCc2ccccc2CC(=O)N1", "< 4.30"),
    ("NCCOCCNC(=O)[C@@H]1CCNC(=O)/C=C/C(=O)N2CCC[C@](Cc3ccccc3)(C2)C(=O)N[C@@H](Cc2ccc(-c3ccc(C(=O)O)cc3)cc2)C(=O)NCc2ccccc2CC(=O)N1", "~4.22"),
]

Cited source for all entries: paper PMC9596378
